target: hGLP-1R (Homo sapiens, UniProt P43220); test: Functional cAMP activity in the presence of 1% HSA; format: cell-based; conditions: read-out: cAMP Rel EC50, hGLP-1R
Sequence (P43220 24-463): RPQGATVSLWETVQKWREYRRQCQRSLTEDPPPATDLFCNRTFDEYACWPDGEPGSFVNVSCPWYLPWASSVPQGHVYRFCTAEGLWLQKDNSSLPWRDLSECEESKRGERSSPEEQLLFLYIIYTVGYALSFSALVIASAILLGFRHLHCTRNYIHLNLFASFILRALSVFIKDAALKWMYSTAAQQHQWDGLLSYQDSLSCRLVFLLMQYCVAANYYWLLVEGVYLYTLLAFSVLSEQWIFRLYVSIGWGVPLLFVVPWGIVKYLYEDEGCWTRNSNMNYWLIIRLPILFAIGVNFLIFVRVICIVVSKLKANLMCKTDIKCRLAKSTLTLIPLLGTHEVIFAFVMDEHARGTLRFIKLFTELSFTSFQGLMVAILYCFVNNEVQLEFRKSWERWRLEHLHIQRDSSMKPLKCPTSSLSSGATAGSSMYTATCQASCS
Starred links: 1 amine or outer side, 2 acyl side, 3 side chain; linkers in the order of their positions; H or OH if unused. Non-standard residues stand in square brackets, D forms with d. Groups on a side chain read outwards from the residue. No end group written: not given here. *: point of attachment. C18 diacid = O=C(O)CCCCCCCCCCCCCCCCC(=O)*; αMePhe(2-F) = C[C@](N)(Cc1ccccc1F)C(=O)O; γGlu = O=C(O)[C@H](CCC(=O)[*:2])N[*:1]; αMe4Pal = C[C@](N)(Cc1ccncc1)C(=O)O; αMeY = C[C@](N)(Cc1ccc(O)cc1)C(=O)O; 4Pal = N[C@@H](Cc1ccncc1)C(=O)O; Aad = N[C@@H](CCCC(=O)O)C(=O)O; αMeL = CC(C)C[C@](C)(N)C(=O)O; αMeS = C[C@](N)(CO)C(=O)O; Orn = NCCC[C@H](N)C(=O)O; AEEA = NCCOCCOCC(=O)O; Aib = CC(C)(N)C(=O)O
Items are presented alongside their recorded pEC50.
Please treat pEC50 as minus the base-10 logarithm of the molar concentration.

Answered examples (5):
H-Y[Aib]QGTFTSD[4Pal]SQ[αMeL]LD[Orn]K([γGlu-γGlu-C18 diacid])AQ[αMe4Pal]AFIE[αMeY]LIA[Aib]GPSSGAPPPSGSEE-NH2 [Example 1107] :: 7.23
H-Y[Aib]QGT[αMePhe(2-F)]TSD[4Pal]SI[αMeL]LD[Orn]K([AEEA-γGlu-C18 diacid])AQ[αMe4Pal][Orn]FI[dE][αMeY]LIEGGPSSGEPPPESEE-NH2 [Example 753] :: 7.42
H-Y[Aib]Q[dA]T[αMePhe(2-F)]TSD[4Pal][αMeS]I[αMeL]LD[Orn]K([γGlu-γGlu-C18 diacid])AQ[Aib]EFI[dE][αMeY]LIEGGPSSGAPPPSGSE-NH2 [Example 1224] :: 7.55
H-Y[Aib]QGTFTSDFS[Orn][αMeL]LDKK([AEEA-γGlu-C18 diacid])AQ[Aib]AFIEYLLEGGPSSGAPPPGG[4Pal]-NH2 [Example 261] :: 6.42
Y[Aib]QGT[αMePhe(2-F)]TSD[4Pal]SILLDKK([γGlu-γGlu-C18 diacid])AQ[Aib]AFIEYL[Aad]EGGPSSGAPPPSGTGE-NH2 [Example 661] :: 7.29

Challenge: I would be grateful if you could share the reported pEC50 for H-Y[Aib]QGT[αMePhe(2-F)]TSD[4Pal]SILLDKK([γGlu-γGlu-C18 diacid])AQ[Aib]AFIEYLEEGGPSSGAPPPSGTE-NH2 [Example 509] .
Response given: 7.16

Challenge: How about this substance: H-Y[Aib]QGT[αMePhe(2-F)]TSD[4Pal]SILLD[Orn]K([γGlu-γGlu-C18 diacid])AQ[Aib]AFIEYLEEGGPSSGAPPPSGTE-NH2 [Example 513]
Response given: 7.11

Challenge: How about this substance: H-Y[Aib]QGTFTSD[4Pal]S[Orn][αMeL]LDKK([AEEA-γGlu-C18 diacid])AQ[αMe4Pal]AFIE[αMe4Pal]LIEGGPSSGAPPPSGSEE-NH2 [Example 955]
Response given: 5.86

Challenge: How about this substance: H-Y[Aib]QGTFTSD[4Pal]S[Orn][αMeL]LDKK([AEEA-γGlu-γGlu-C18 diacid])AQ[αMe4Pal]AFIEYLIE[Aib]GPSSGAPPPSGS-NH2 [Example 867]
Response given: 6.32

Challenge: How about this substance: H-Y[Aib]QGT[αMePhe(2-F)]TSD[4Pal][αMeS]I[αMeL]LD[Orn]K([γGlu-γGlu-C18 diacid])AQ[αMe4Pal]EFI[dE][αMeY]LIEGGPSSGAPPPSGGGE-NH2 [Example 743]
Response given: 7.67

Challenge: How about this substance: H-Y[Aib]QGT[αMePhe(2-F)]TSD[4Pal][αMeS]I[αMeL]LD[Orn]K([AEEA-γGlu-C18 diacid])AQ[αMe4Pal]EFI[dE][αMeY]LIEGGPSSGAPPPSGTGE-NH2 [Example 714]
Response given: 7.48
